Values were extracted from PubChem BioAssay AID1159580.

# assay summary: chemical genetic growth profiling, strain panel (AID 1159580);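 also: tested at 20 µM; growth read once vehicle control cultures reached saturation at 30 °C; 1 = growth at the plate median or of vehicle wells; lower values mean less growth of the strain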
# condition set: S. cerevisiae deletion strains, growth OD, locus YEL061C, strain CIN8, hits give low values
In all, about 5,500 compounds went through this assay and about 2,000 (36%) were called active. Not shown: some 18% with an inconclusive outcome. Some of the results follow.
Overview of recorded normalized growth for various compounds
Just the number, please, no unit after it.

Consider the reported normalized growth for these compounds:
I'd like to know its normalized growth. The compound in question is Nc1nc2c(ncn2C2C[C@H](O)[C@@H](CO)O2)c(=O)[nH]1 (stereo partly specified) 0.979

I'd like to know its normalized growth. The compound in question is OC[C@@H]1CCCN2CCCC[C@H]12 1

I'd like to know its normalized growth. The compound in question is CC(=O)Oc1ccc(Cl)c2cccnc12 0.0486

I'd like to know its normalized growth. The compound in question is CC(=O)NCCCCCC(=O)O 1.01

I'd like to know its normalized growth. The compound in question is CC(C)(C)C(=O)NC(=S)Nc1cccc(C(F)(F)F)c1 0.944

I'd like to know its normalized growth. The compound in question is Nc1ncnc2c1ncn2C1O[C@H](COP(=O)(O)O)[C@@H](O)[C@H]1O (stereo partly specified) 1.01

New cases:
I'd like to know its normalized growth. The compound in question is CCN(CC)CCNC(=O)c1cc(S(C)(=O)=O)ccc1OC 1.01

I'd like to know its normalized growth. The compound in question is O=c1[nH]c(=O)n(C2C[C@@H](O)[C@@H](CO)O2)cc1F (stereo partly specified) 1.01

I'd like to know its normalized growth. The compound in question is O=C(O)CCCCC1CCSS1 (stereo unspecified) 0.975

I'd like to know its normalized growth. The compound in question is COC(=O)C[C@H]1C(C)(C)C(=O)[C@@H]2CC3=C4CC(=O)O[C@@H](c5ccoc5)[C@]4(C)CCC3[C@@]1(C)C2=O (stereo partly specified) 1

I'd like to know its normalized growth. The compound in question is CSC1=NCN(Cc2ccccc2)CN1 0.981

I'd like to know its normalized growth. The compound in question is CCCC1O[C@@H]2CC3C4CCC5=CC(=O)C=CC5(C)C4[C@@H](O)CC3(C)[C@]2(C(=O)CO)O1 (stereo partly specified) 1

I'd like to know its normalized growth. The compound in question is O=C1O[C@H](C(O)CO)C(O)=C1O (stereo partly specified) 1.02

I'd like to know its normalized growth. The compound in question is CCCC(C)C1(CC)C(=O)NC(=O)NC1=O (stereo unspecified) 1.01

I'd like to know its normalized growth. The compound in question is Nc1ncnc2c1ncn2C1C[C@H](O)[C@@H](CO)O1 (stereo partly specified) 1
